Test system: velvetleaf (Abutilon theophrasti)
Assay: Test B postemergence
Format: in vivo
Conditions: Rate 125 g/ha, scale 0 (no effect) to 100 (complete control), 13 to 15 days
Procedure: […] At the same time, plants selected from these crop and weed species and also blackgrass (Alopecurus myosuroides), wheat (Triticum aestivum) and wild oat (Avena fatua) were treated with postemergence applications of test chemicals formulated in the same manner. […] Treated plants and controls were maintained in a greenhouse for 13 to 15 days, after which time all species were compared to controls and visually evaluated. […]
Overview of recorded Plant response rating, Velvetleaf for various compounds

COMPOUND	Plant response rating, Velvetleaf
CC1CCc2cn(C3CCN(c4cccc(C(F)(F)F)c4)C3=O)nc21 (centres unmarked)	0
CC(C)(C)c1ccn(C2CCN(c3cccc(OC(F)F)c3)C2=O)n1 (centres unmarked)	0
CC(C)(C)c1ccn(C2SCN(c3cccc(OC(F)(F)F)c3)C2=O)n1 (centres unmarked)	0
CC1(C)CCc2cn(C3CCN(c4cccc(C(F)(F)F)c4)C3=O)nc21 (centres unmarked)	0
CC1(c2ccn(C3OCN(c4cccc(C(F)(F)F)c4)C3=O)n2)CC1 (centres unmarked)	0
Cc1c(Cl)cc(N2CCC(n3ccc(C(C)(C)C)n3)C2=O)cc1Cl (centres unmarked)	0
CC(C)Oc1cccc(N2CCC(n3ccc(C(C)(C)C)n3)C2=O)c1 (centres unmarked)	0
CC(C)(C)c1ccn(C2SCN(c3cccc(C(F)(F)F)c3)C2=O)n1 (centres unmarked)	50
O=C1C(n2ccc(C3CCC3)n2)SCN1c1cccc(OC(F)(F)F)c1 (centres unmarked)	0
CC(C)c1ccn(C2SCN(c3cccc(OC(F)F)c3)C2=O)n1 (centres unmarked)	0
CCC(C)Oc1ccn(C2CCN(c3cccc(C(F)(F)F)c3)C2=O)n1 (centres unmarked)	0

Values compiled from patent US7138361B2.
